target: receptors (Bioprint panel) (Homo sapiens, UniProt Q9H3N8)
Sequence (Q9H3N8 whole entry): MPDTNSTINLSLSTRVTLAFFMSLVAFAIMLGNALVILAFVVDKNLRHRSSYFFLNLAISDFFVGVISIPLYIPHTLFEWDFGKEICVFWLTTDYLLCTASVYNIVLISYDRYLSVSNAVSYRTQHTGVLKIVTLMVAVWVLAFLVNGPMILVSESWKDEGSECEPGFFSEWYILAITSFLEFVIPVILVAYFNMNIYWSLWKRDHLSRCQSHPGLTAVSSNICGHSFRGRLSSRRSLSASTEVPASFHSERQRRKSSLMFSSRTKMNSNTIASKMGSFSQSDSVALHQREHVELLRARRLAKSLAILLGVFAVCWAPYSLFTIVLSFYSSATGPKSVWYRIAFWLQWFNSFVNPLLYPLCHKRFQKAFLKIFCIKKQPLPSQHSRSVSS
pIC50: −log10 of the molar value.
measured-property: pIC50

- N=C(N)SCCc1cnc[nH]1: 8.33

====

test system: 280 human cancer cell lines; test: OncoPanel cell proliferation assay (10-day); assay type: cell-based; details: Homo sapiens, Ca-Ski, Ca Ski, Female GU - Ovary; read-out: Cell Count EC50
measured-property: EC50

• CC(C)=CCC[C@H](C)[C@@H]1CC[C@@H](C)c2c1cc(C)c(O)c2O [Compound 4, 7,8-dihydroxyserrulat-14-ene] = 17.6 µM
• CC(C)=CCC[C@@H]1C(O)Oc2c(C)cc(O)c3c2[C@H]1CC[C@H]3C (stereo partly drawn) [Compound 2, 5,18-epoxyserrulat-14-en-8,18-diol] = > 30 µM
• CC(C)=CCC[C@H](CO)[C@@H]1CC[C@@H](C)c2c1cc(C)c(O)c2O [Compound 1, 7,8,18-trihydroxyserrulat-14-ene] = 5.28 µM

====

// reported EC50 for each item listed
system: 280 human cancer cell lines; assay: OncoPanel cell proliferation assay (10-day); type: cell-based; details: Homo sapiens, KLE, Female GU - Uterus; read-out: Cell Count EC50
measured-property: EC50 (µM)

• CC(C)=CCC[C@@H]1C(O)Oc2c(C)cc(O)c3c2[C@H]1CC[C@H]3C (stereo partly drawn) = 26.3
• CC(C)=CCC[C@H](CO)[C@@H]1CC[C@@H](C)c2c1cc(C)c(O)c2O [Compound 1, 7,8,18-trihydroxyserrulat-14-ene] = 3.7
• CC(C)=CCC[C@H](C)[C@@H]1CC[C@@H](C)c2c1cc(C)c(O)c2O [Compound 4, 7,8-dihydroxyserrulat-14-ene] = 18.2

====

Molecular target: PRMT4 (h) (Homo sapiens, UniProt Q86X55)
Sequence (Q86X55 1-608): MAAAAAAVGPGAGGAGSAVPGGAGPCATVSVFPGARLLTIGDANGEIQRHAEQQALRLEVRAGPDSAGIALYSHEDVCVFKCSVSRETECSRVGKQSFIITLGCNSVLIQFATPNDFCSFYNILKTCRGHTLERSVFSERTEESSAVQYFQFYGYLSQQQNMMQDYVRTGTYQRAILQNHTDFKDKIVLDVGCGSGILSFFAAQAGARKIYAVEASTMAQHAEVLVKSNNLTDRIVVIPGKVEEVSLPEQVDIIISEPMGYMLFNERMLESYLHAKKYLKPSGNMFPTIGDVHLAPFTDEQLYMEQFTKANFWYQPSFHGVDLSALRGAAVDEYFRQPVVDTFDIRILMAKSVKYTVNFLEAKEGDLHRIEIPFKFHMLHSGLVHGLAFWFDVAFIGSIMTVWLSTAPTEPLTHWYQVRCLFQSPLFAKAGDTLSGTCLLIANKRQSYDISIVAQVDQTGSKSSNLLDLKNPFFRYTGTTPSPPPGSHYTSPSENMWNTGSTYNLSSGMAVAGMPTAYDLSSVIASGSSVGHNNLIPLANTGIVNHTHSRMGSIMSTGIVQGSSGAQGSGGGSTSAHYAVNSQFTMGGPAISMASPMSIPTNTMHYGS
// reported IC50 for each item listed
measured-property: IC50 (µM)

• CC(C)=CCC[C@H](CO)[C@@H]1CC[C@@H](C)c2c1cc(C)c(O)c2O [Compound 1, 7,8,18-trihydroxyserrulat-14-ene] = 4.7
• CC(C)=CCC[C@@H]1C(O)Oc2c(C)cc(O)c3c2[C@H]1CC[C@H]3C (stereo partly drawn) = 5.4
• CC(C)=CCC[C@H](C)[C@@H]1CC[C@@H](C)c2c1cc(C)c(O)c2O [Compound 4, 7,8-dihydroxyserrulat-14-ene] = 4.7
